target: AChE enzyme from Electrophorus electricus (electric eel) (Electrophorus electricus, UniProt O42275)
Sequence (O42275 24-633): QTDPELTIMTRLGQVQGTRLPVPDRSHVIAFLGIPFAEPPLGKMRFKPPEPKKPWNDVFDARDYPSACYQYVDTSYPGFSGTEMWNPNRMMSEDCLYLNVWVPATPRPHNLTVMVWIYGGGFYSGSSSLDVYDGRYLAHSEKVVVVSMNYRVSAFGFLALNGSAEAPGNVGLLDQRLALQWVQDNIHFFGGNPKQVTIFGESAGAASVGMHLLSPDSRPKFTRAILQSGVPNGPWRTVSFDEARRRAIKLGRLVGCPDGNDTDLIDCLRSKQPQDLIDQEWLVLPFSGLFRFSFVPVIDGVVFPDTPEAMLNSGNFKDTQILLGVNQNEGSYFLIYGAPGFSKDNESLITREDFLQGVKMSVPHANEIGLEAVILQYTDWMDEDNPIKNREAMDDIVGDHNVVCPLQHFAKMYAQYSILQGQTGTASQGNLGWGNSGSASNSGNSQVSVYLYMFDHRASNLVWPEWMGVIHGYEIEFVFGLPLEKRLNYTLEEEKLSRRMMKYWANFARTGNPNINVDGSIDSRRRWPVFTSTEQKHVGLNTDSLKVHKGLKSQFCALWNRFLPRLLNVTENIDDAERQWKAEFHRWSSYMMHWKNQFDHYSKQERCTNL
pIC50: −log10 of the molar value.
Overview of recorded pIC50 for various compounds
MEASURED ATTRIBUTE: pIC50

compound="O=c1cc(-c2ccc(O)cc2)oc2cc(O)cc(O)c12 [Apigenin]" experimental_value=4.86
compound="COc1c(O)cc(O)c2c(=O)cc(-c3ccccc3)oc12 [Wogonin]" experimental_value=4.81
